ASSAY: antimalarial activity against Dd2 strain (AID 2302);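 note: 0% = DMSO untreated growth and 100% = chloroquine plus artemisinin killed control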
CONDITIONS USED: P. falciparum Dd2 in RBCs, LDH growth readout, 72 h; at 2 µM
The source made the active and inactive calls.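 Rule for the calls: active = growth inhibition above 50% at the single 2 µM test dose, taken to imply half-maximal potency below 2 µM; inactive = the rest.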
Thanks in advance; please answer with one of these: Y (active), N (inactive)

COc1ccccc1CCNC(=O)c1cc(Br)cc(N2CCN(c3ccncc3)CC2)c1 = N
COc1ccc(CC(=O)NC(CCCN2CCC(c3ccccc3)CC2)c2ccc(Cl)c(Cl)c2)cc1OC (centres undefined) = Y

Given `COc1ccc2nccc([C@H](O)CN3CCC(NCc4nc5c(F)cccc5[nH]4)CC3)c2c1` , state the outcome it received in this test.
N

Given `CNC(=O)c1[nH]c(-c2ccccc2)nc1NC(C)=O` , state the outcome it received in this test.
N

Given `N#Cc1cccc(CNC(=O)c2cccc(Nc3ccnc4ccc(F)cc34)c2)c1` , state the outcome it received in this test.
N

====

ASSAY: inhibition of 3D7 malaria parasite growth – strain 3D7 (AID 2306);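 note: 0% = DMSO wells and 100% = chloroquine plus artemisinin control wells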
CONDITIONS USED: P. falciparum 3D7 erythrocytic growth, LDH absorbance, 72 h; at 2 µM; hits give high values
Each entry below carries its recorded growth inhibition.
Report only the number, with the unit % understood.

CCCNC[C@@H](O)[C@H](Cc1ccccc1)NC(=O)c1cc(NCC)cc(N2CCCC2=O)c1 = 100
COc1ccc2ccccc2c1CCCCN1CCN(CC(c2ccc(F)cc2)N2CCN(C3CCCC3)CC2)CC1 (centres undefined) = 88
O=C(CC1NC(=O)c2ccccc21)Nc1ccc(-c2ccc(-c3nc4ccc(C(F)(F)F)cc4[nH]3)cc2)cc1 (centres undefined) = 87

Can you share its growth inhibition? I mean this compound: `FC(F)(F)c1cccc2c(NN=Cc3ccccc3)ccnc12`
101

Can you share its growth inhibition? I mean this compound: `c1cc(-c2cc3ccc(C4=NCCN4)cc3[nH]2)ccc1C1=NCCN1`
97

====

ASSAY: HepG2 cytotoxicity, primary screen, cytotoxicity control for P. falciparum antimalarial project, cell-based, ATP luminescence (AID 2303);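 note: 0% = DMSO wells and 100% = digitonin-killed cells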
CONDITIONS USED: HepG2 viability, 24-48 h, at 10 µM
Activity calls are given as the source filed them.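 How the source made its calls: active means inhibition above 50%; inactive means the rest.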
Thanks in advance; please answer with one of these: active, inactive

Examples with answers:
COc1cc(C)nc2ccc(NC(=O)Nc3cccc4ccccc34)cc12 = inactive
O=C1CCCN1CCCNCc1cccc(-c2ccc(-c3nc4ccc(C(F)(F)F)cc4[nH]3)s2)c1 = inactive
COc1ccc2c(c1)CC(C)(C)NC2CCCCCCCCC1NC(C)(C)Cc2cc(OC)ccc21 (centres undefined) = inactive
Cc1cccc2[nH]c(-c3ccc(-c4cccc(NC(=O)c5cnccc5C(F)(F)F)c4)cc3)nc12 = inactive
N#CCSc1nnc(-c2ccccc2)c2ccccc12 = inactive
COc1cccc(-c2nn(C)c3sc(C(=O)NCCN4CCN(c5ccccc5F)CC4)cc23)c1 = inactive

Given `Cc1ccc(-n2nc(-c3ccccc3)c3cc(C(=O)NCCN)sc32)cc1` , state the outcome it received in this test.
inactive

Given `CN1CCN(CCCCNc2c3ccccc3nc3ccccc23)CC1` , state the outcome it received in this test.
inactive

Given `C=CCc1cccc(CN2CCC(c3cc(=O)[nH]c(-c4ccccn4)n3)CC2)c1O` , state the outcome it received in this test.
inactive

Given `COc1ccc(S(=O)(=O)N(CC(=O)NN=C(C)c2cccs2)c2cc(C)cc(C)c2)cc1OC` , state the outcome it received in this test.
inactive

Given `Cc1cccc2[nH]c(-c3cccc(-c4ccc(NC(=O)NC(C)C)cc4)c3)nc12` , state the outcome it received in this test.
inactive

Given O=C(c1ccc(F)c(F)c1)N1CCOC(CCN2CCC(c3ccccc3)CC2)(c2ccc(Cl)c(Cl)c2)C1 (centres undefined) , state the outcome it received in this test.
active

Given `CC(C)(CNC(=O)C1CCN(CC2CCCCC2)CC1)c1nc(-c2ccc(Cl)c(O)c2)c(-c2ccncc2)[nH]1` , state the outcome it received in this test.
inactive

Given `COCn1ncc2cc(-c3cccc(NC(=O)c4csc(NC(C)=O)n4)c3)ccc21` , state the outcome it received in this test.
inactive

Given `CCCSc1nc2c(c(=O)n1Cc1ccco1)C1(CCCCC1)Cc1ccccc1-2` , state the outcome it received in this test.
inactive

Given `Cc1cc(F)ccc1C1CCN(CCCCNC(=O)c2ccc(NC(=O)c3ccc(Cl)cc3)cc2)CC1` , state the outcome it received in this test.
inactive

Given `COC(=O)c1ccc(C(=O)NCCCCN2CCC(c3ccc4c(c3OC)CCCC4)CC2)cc1-c1ccc(C(F)(F)F)cc1` , state the outcome it received in this test.
inactive

Given `CN1CCC(Oc2cc(NC(=O)Nc3ccc(-c4ccncc4)c(C(F)(F)F)c3)ccc2Cl)CC1` , state the outcome it received in this test.
inactive

Given `Cc1cc(N2CCCCC2)nc2ccc(NC(=O)c3cncc(Br)c3)cc12` , state the outcome it received in this test.
inactive
